Provenance of the data: patent EP0944629B1

Reported IC50 (µg/ml) A2780 DDP values follow for various compounds
# Test system: A2780 DDP
# procedure-details: two cell line test procedure (sulforhodamine B cytotoxicity), A2780 DDP
# Assay type: cell-based
# study-conditions: A2780 DDP (cisplatin-resistant) cells, 48 hours exposure
measured-endpoint: IC50 (µg/ml) A2780 DDP (µg/mL)

{"smi": "CN(C)CCNC(=O)c1cccn2c(=O)c3cc(-c4cccc(C(F)(F)F)c4)ccc3nc12", "reading-unit": "µg/mL", "numeric-readout": 4.20}
{"smi": "Cl.Cl.Cl.Nc1cccc(-c2ccc3nc4c(C(=O)NCCNCCO)cccn4c(=O)c3c2)c1", "reading-unit": "µg/mL", "numeric-readout": 2.10}
{"smi": "CN(C)CCNC(=O)c1cccn2c(=O)c3cc(-c4cccc5ccccc45)ccc3nc12", "reading-unit": "µg/mL", "numeric-readout": 4.70}
{"smi": "COc1ccc(-c2ccc3nc4c(C(=O)NCCN(C)C)cccn4c(=O)c3c2)cc1", "reading-unit": "µg/mL", "numeric-readout": 3.40}
{"smi": "CN(C)CCNC(=O)c1cccn2c(=O)c3cc(-c4cc(C(F)(F)F)cc(C(F)(F)F)c4)ccc3nc12", "reading-unit": "µg/mL", "numeric-readout": 3.00}
{"smi": "CN(C)CCNC(=O)c1cccn2c(=O)c3cc(-c4ccccc4-c4ccccc4)ccc3nc12", "reading-unit": "µg/mL", "numeric-readout": 4.80}
{"smi": "CN(C)CCNC(=O)c1cccn2c(=O)c3cc(-c4cccc(N)c4)ccc3nc12", "reading-unit": "µg/mL", "numeric-readout": 3.70}
{"smi": "CN(C)CCNC(=O)c1cccn2c(=O)c3cc(-c4cc5ccccc5c5ccccc45)ccc3nc12", "reading-unit": "µg/mL", "numeric-readout": 5.30}
{"smi": "CN(C)CCNC(=O)c1cccn2c(=O)c3cc(-c4cccc(N(C)C)c4)ccc3nc12", "reading-unit": "µg/mL", "numeric-readout": 0.50}
{"smi": "CN(C)CCNC(=O)c1cccn2c(=O)c3cc(-c4cccc(-c5ccccc5)c4)ccc3nc12", "reading-unit": "µg/mL", "numeric-readout": 0.80}
{"smi": "CN(C)CCNC(=O)c1cccn2c(=O)c3ccc(-c4cccc(N)c4)cc3nc12", "reading-unit": "µg/mL", "numeric-readout": 0.40}
{"smi": "Cl.Cl.Cl.Nc1ccccc1-c1ccc2nc3c(C(=O)NCCNCCO)cccn3c(=O)c2c1", "reading-unit": "µg/mL", "numeric-readout": 6.90}
{"smi": "Cl.Cl.O=C(NCCNCCO)c1cccn2c(=O)c3cc(-c4ccccc4)ccc3nc12", "reading-unit": "µg/mL", "numeric-readout": 3.50}

###

# Test system: A2780 S
# procedure-details: two cell line test procedure (sulforhodamine B cytotoxicity), A2780 S
# Type: cell-based
# study-conditions: A2780 S cells, 48 hours exposure
Binarize IC50 (µg/ml) A2780 S at 4 µg/mL; below is 1, at or above is -1.

{"molecule": "CN(C)CCNC(=O)c1cccn2c(=O)c3cc(-c4cc(C(F)(F)F)cc(C(F)(F)F)c4)ccc3nc12 [Example 20]", "label-class": 1}
{"molecule": "CN(C)CCNC(=O)c1cccn2c(=O)c3cc(-c4cccc(-c5ccccc5)c4)ccc3nc12 [Example 15]", "label-class": 1}
{"molecule": "CN(C)CCNC(=O)c1cccn2c(=O)c3cc(-c4cccc5ccccc45)ccc3nc12 [Example 17]", "label-class": -1}
{"molecule": "CN(C)CCNC(=O)c1cccn2c(=O)c3cc(-c4cccc(N)c4)ccc3nc12 [Example 13]", "label-class": 1}
{"molecule": "Cl.Cl.Cl.Nc1ccccc1-c1ccc2nc3c(C(=O)NCCNCCO)cccn3c(=O)c2c1 [Example 30]", "label-class": -1}
{"molecule": "CN(C)CCNC(=O)c1cccn2c(=O)c3cc(-c4ccccc4-c4ccccc4)ccc3nc12 [Example 14]", "label-class": -1}
{"molecule": "CN(C)CCNC(=O)c1cccn2c(=O)c3cc(-c4cccc(N(C)C)c4)ccc3nc12 [Example 21]", "label-class": 1}
{"molecule": "COc1ccc(-c2ccc3nc4c(C(=O)NCCN(C)C)cccn4c(=O)c3c2)cc1 [Example 19]", "label-class": -1}
